Where these numbers come from: patent EP4810040A2

target: APOL1 G1 (Homo sapiens, UniProt O14791, I384M/S342G); experiment: MultiTox-Fluor Multiplex Cytotoxicity Assay, tet-inducible APOL1 G1 T-REx-HEK293 cells; format: cell-based; set-up: expressed in transfected cells; host or cells: T-REx HEK293, clone G1 DC3.25 (pAAVS1-Puro-APOL1 G1); conditions: HEK293, Multi-Tox Assay; APOL1 variant (G0/G1/G2) of the HEK293 cells not given; read-out: Multi-Tox Assay IC90
Sequence (O14791 28-398 S342G/I384M): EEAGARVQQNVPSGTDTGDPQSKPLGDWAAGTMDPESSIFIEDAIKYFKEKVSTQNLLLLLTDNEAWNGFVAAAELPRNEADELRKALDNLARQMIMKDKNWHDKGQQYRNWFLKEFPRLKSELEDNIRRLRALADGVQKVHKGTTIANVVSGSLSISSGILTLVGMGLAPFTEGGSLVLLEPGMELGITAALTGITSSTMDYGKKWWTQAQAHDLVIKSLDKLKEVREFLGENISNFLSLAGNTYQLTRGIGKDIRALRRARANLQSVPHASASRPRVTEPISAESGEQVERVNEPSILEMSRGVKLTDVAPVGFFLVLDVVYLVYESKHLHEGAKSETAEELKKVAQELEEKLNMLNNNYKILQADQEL
measuredAttribute: IC90

compound="COc1ccc([C@@H]2C[C@]3(C[C@H](C)N2)OCCc2cc(Cl)sc23)c(F)c1 (racemic)" target="APOL1 G1 (Homo sapiens, UniProt O14791, I384M/S342G)" measuredattribute=IC90 recordedvalue="< 0.05 µM"
compound=C[C@H]1C[C@@]2(C[C@@H](c3cc(C(F)(F)F)[nH]n3)N1)OCCc1cc(Cl)sc12 target="APOL1 G1 (Homo sapiens, UniProt O14791, I384M/S342G)" measuredattribute=IC90 recordedvalue="0.05 to 0.5 µM"
compound="CCc1nc([C@@H]2C[C@]3(C[C@H](C)N2)OCCc2cc(Cl)sc23)c[nH]1 (racemic)" target="APOL1 G1 (Homo sapiens, UniProt O14791, I384M/S342G)" measuredattribute=IC90 recordedvalue="0.05 to 0.5 µM"
compound="C[C@H]1C[C@@]2(C[C@@H](c3cccc4cn[nH]c34)N1)OCCc1cc(Cl)sc12 (racemic)" target="APOL1 G1 (Homo sapiens, UniProt O14791, I384M/S342G)" measuredattribute=IC90 recordedvalue="> 0.5 µM"
compound="C[C@H]1C[C@@]2(C[C@@H](c3cccc(=O)[nH]3)N1)OCCc1cc(Cl)sc12 (racemic)" target="APOL1 G1 (Homo sapiens, UniProt O14791, I384M/S342G)" measuredattribute=IC90 recordedvalue="> 0.5 µM"
compound="Cc1cccnc1[C@@H]1C[C@]2(C[C@H](C)N1)OCCc1cc(Cl)sc12 (racemic)" target="APOL1 G1 (Homo sapiens, UniProt O14791, I384M/S342G)" measuredattribute=IC90 recordedvalue="> 0.5 µM"

====

target: APOL1 G1 (Homo sapiens, UniProt O14791, I384M/S342G); assay: MultiTox-Fluor Multiplex Cytotoxicity Assay, tet-inducible APOL1 G1 T-REx-HEK293 cells; format: cell-based; set-up: expressed in transfected cells; host or cells: T-REx HEK293, clone G1 DC3.25 (pAAVS1-Puro-APOL1 G1); settings: Multi-Tox Assay; APOL1 variant not stated in Table 46; read-out: Multi-Tox Assay Max Activity (%)
measuredAttribute: Emax (%)

compound="Cn1cc([C@@H]2C[C@]3(C[C@H](C4CC4)N2)OCCc2cc(Cl)sc23)nn1 [Compound 381]" unitsofmeasure=% recordedvalue=100
compound="Cn1cc(C2CC3(CC(C(F)F)N2)OCCc2cc(Cl)sc23)nn1 (stereo not drawn) [Compound 388]" unitsofmeasure=% recordedvalue=90
compound="[2H][13C]([2H])([2H])n1cc([C@@H]2[13CH2][C@]3(C[C@H](C)N2)OC[C@@H](O)c2cc(C(F)(F)F)sc23)nn1 [Compound 386]" unitsofmeasure=% recordedvalue=100

====

biological target: APOL1 G1 (Homo sapiens, UniProt O14791, I384M/S342G); assay: MultiTox-Fluor Multiplex Cytotoxicity Assay, tet-inducible APOL1 G1 T-REx-HEK293 cells; type: cell-based; parameters: expressed in transfected cells; host or cells: T-REx HEK293, clone G1 DC3.25 (pAAVS1-Puro-APOL1 G1); conditions: HEK293, Multi-Tox Assay; APOL1 variant (G0/G1/G2) of the HEK293 cells not given; read-out: Multi-Tox Assay IC90
measuredAttribute: IC90

compound="C[C@H]1C[C@@]2(C[C@@H](c3cn(CC4(CO)CCOCC4)nn3)N1)OC[C@@H](O)c1cc(Cl)sc12 [Compound 240]" measuredattribute=IC90 recordedvalue="> 500 nM"
compound="CC1CC2(CC(C)N1)OCCc1cc(Cl)sc12 (mixture of isomers) [Compound 194]" measuredattribute=IC90 recordedvalue="50 to 500 nM"
compound="C[C@H]1C[C@@]2(C[C@@H](c3cn(C)c(=O)n(C)c3=O)N1)OCCc1cc(Cl)sc12 (racemic) [Compound 124]" measuredattribute=IC90 recordedvalue="50 to 500 nM"
compound="CC(C)c1c[nH]c([C@@H]2C[C@]3(C[C@H](C)N2)OCCc2cc(Cl)sc23)n1 (racemic) [Compound 162]" measuredattribute=IC90 recordedvalue="> 500 nM"
compound="Cn1cc(C2CC3(CC(C4CCC4)N2)OCCc2cc(Cl)sc23)nn1 (stereo not shown) [Compound 189]" measuredattribute=IC90 recordedvalue="> 500 nM"
compound="C#C[C@@H]1C[C@]2(C[C@H](C)N1)OC[C@@H](O)c1cc(Cl)sc12 [Compound 222]" measuredattribute=IC90 recordedvalue="50 to 500 nM"
compound="Cc1nnc(Cn2cc([C@@H]3C[C@]4(C[C@H](C)N3)OCC(F)(F)c3cc(Cl)sc34)nn2)[nH]1 [Compound 339]" measuredattribute=IC90 recordedvalue="50 to 500 nM"
compound="C[C@H]1C[C@@]2(C[C@@H](c3cn(C)nn3)N1)OCCc1cc(Cl)sc12 [Compound 1]" measuredattribute=IC90 recordedvalue="< 50 nM"
compound="CC1CC2(CC(c3cnn(-c4cccnc4)c3)N1)OCCc1cc(Cl)sc12 (stereo not shown) [Compound 40]" measuredattribute=IC90 recordedvalue="< 50 nM"
compound="C[C@H]1C[C@@]2(C[C@@H](c3cnn(CCO)c3)N1)OCCc1cc(Cl)sc12 (racemic) [Compound 56]" measuredattribute=IC90 recordedvalue="< 50 nM"
compound="C[C@H]1C[C@@]2(C[C@@H](c3cccn4ccnc34)N1)OCCc1cc(Cl)sc12 [Compound 143]" measuredattribute=IC90 recordedvalue="50 to 500 nM"
compound="Cc1nc[nH]c1[C@@H]1C[C@]2(C[C@H](C)N1)OCCc1cc(Cl)sc12 (racemic) [Compound 161]" measuredattribute=IC90 recordedvalue="> 500 nM"
compound="Cc1nc(Cn2cc([C@@H]3C[C@]4(C[C@H](C)N3)OCC(F)(F)c3cc(Cl)sc34)nn2)oc1C [Compound 337]" measuredattribute=IC90 recordedvalue="50 to 500 nM"
compound="C[C@H]1C[C@@]2(C[C@@H](c3ccc(C(F)(F)F)nc3)N1)OCCc1cc(Cl)sc12 (racemic) [Compound 123]" measuredattribute=IC90 recordedvalue="50 to 500 nM"
compound="C[C@H]1C[C@@]2(C[C@@H](c3cn(CCCO)nn3)N1)OCC(F)(F)c1cc(Cl)sc12 [Compound 359]" measuredattribute=IC90 recordedvalue="< 50 nM"
compound="C[C@H]1C[C@@]2(C[C@@H](c3cnccc3O)N1)OCCc1cc(Cl)sc12 (racemic) [Compound 160]" measuredattribute=IC90 recordedvalue="> 500 nM"
